Please provide measured kon for the entries that follow.
target of assay: T1, Full-length human HER3 extracellular domain (ECD) (human, UniProt P21860 20-643)
T1 construct: also called human HER3 ECD; HER-3 ECD full length
T1 sequence (P21860 20-643): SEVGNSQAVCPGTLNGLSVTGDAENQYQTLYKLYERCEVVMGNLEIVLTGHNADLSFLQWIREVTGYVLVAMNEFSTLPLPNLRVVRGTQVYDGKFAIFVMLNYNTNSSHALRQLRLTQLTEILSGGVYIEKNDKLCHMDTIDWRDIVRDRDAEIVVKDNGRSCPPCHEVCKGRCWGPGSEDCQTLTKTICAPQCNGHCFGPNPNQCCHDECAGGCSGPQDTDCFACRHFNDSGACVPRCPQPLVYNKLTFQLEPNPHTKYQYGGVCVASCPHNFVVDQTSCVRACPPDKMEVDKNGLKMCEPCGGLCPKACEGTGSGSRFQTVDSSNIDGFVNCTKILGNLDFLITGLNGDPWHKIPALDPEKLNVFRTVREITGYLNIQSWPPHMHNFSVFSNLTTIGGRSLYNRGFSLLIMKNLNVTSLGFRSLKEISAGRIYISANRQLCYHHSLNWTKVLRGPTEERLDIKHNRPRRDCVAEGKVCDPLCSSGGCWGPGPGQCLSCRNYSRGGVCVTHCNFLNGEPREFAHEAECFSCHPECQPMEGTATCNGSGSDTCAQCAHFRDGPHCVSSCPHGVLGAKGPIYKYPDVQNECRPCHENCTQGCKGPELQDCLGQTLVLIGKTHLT
protocol: BIACORE 2000 SPR, mAb captured, HER3 protein as analyte, 25 C
Please reply with the bare figure in M⁻¹ s⁻¹ and do not write the unit itself.

Tell us which kon value is on record for Chimeric 1D9 antibody (antibody, V domains shown, Murine VH fused to human IgG1 CH1-Fc, murine VL fused to human CK; also called Ch1D9; ch1D9) VH: QVQLQQPGAELVRPGTSVKLSCKASGYTFTSYWMHWVKQRPGQGLEWIGVIDPSDGYSHYNQKFKGKATLTVDTSSSTAYMQLSSLTSEDSAVYYCAGGLAGTLDYWGQGTTLTVSS VL: DVLMTQTPLSLPVSLGDQASISCRSSQSIVHSSGNTYLQWFLQKPGQSPKLLISKVSNRFSGVPDRFSGSGSGTDFTLRISRVEAEDLGLYYCFQGSHVPWTFGGGTKLEIK
740000

Tell us which kon value is on record for Murine 1D9 antibody (M5.1D9.1F5) (antibody, IgG2b, V domains shown, Mouse monoclonal, IgG2b; also called m1D9) VH: QVQLQQPGAELVRPGTSVKLSCKASGYTFTSYWMHWVKQRPGQGLEWIGVIDPSDGYSHYNQKFKGKATLTVDTSSSTAYMQLSSLTSEDSAVYYCAGGLAGTLDYWGQGTTLTVSS VL: DVLMTQTPLSLPVSLGDQASISCRSSQSIVHSSGNTYLQWFLQKPGQSPKLLISKVSNRFSGVPDRFSGSGSGTDFTLRISRVEAEDLGLYYCFQGSHVPWTFGGGTKLEIK
355000

Tell us which kon value is on record for Murine 15D5 antibody (M5.15D5.2A1.1H10) (antibody, IgG1, V domains shown, Mouse monoclonal, IgG1; also called m15D5; M5.15D5.1C1) VH: EFQLQQSGPELVKPGASVKISCKASGYSFTDYNMNWVKQNNGKSLEWIGGINPNYGTTVYNQKFKGKATLTVDQSSSTAYMQLVSLTSEDSAVYYCARMTTIVPFDYWGQGTTLTVSS VL: DIQMTQTTFSLSASLGDRVTISCRASQDISNYLNWYQQKPDGTVKLLIYYTSTLHSGVPSRFSGSGSGTDYFLTIRNLEEEDIATYFCQQGYTLPWTFGGGTKLDIK
41200

Tell us which kon value is on record for Chimeric 15D5 antibody (antibody, human IgG1, V domains shown, To be rechecked; also called Ch15D5; ch15D5) VH: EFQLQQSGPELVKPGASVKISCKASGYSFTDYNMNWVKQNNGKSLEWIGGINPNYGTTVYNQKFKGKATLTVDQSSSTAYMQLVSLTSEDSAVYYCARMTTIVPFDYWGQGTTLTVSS VL: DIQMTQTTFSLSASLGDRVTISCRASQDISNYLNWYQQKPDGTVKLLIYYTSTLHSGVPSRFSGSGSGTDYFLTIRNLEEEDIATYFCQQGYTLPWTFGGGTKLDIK
67900
